Source of measurements: the supplement of paper PMC10724198

protein stability index values, listed per item
Test system: Saccharomyces cerevisiae;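 note: PSI per variant is the weighted mean of its sequencing read distribution over the sorted stability bins, counting only variants with over 10 reads summed across bins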
experimental-details: protein stability index of tFT-peptide fusion in deletion strain of DOA10 (PSI (0-1 scale)); higher = more stable (slower turnover)
measured-attribute: protein stability index

INSERT INTO results (sequence_record, reported_result) VALUES
  ('RVTRLDAIYFRW', 0.709),
  ('RVTMLDAIYFRI', 0.614),
  ('GLYMCDVGCWFR', 0.699),
  ('RSLRVLLPLYFRY', 0.606),
  ('AITLPMCPELLR', 0.674),
  ('GLYMCYVGCWFR', 0.423),
  ('PITLPMCPLLLR', 0.648),
  ('RSLRVLLPLYFP', 0.657),
  ('GLYMCSVGFWFR', 0.545),
  ('CLVSPPILLFFR', 0.651),
  ('RSLRVLTPLYFR', 0.68),
  ('TVTRLDAIYFRI', 0.707),
  ('RVTSLDAIYFRI', 0.669),
  ('RSLFVLLPLYFR', 0.613),
  ('MVTRLDAIYFRI', 0.653),
  ('GLYMCSVGCWMR', 0.575),
  ('GLEMCSVGCWFR', 0.658),
  ('RVTRLDAQYFRI', 0.683),
  ('AITRPMCPLLLR', 0.65);
